Consider the following binders; for each one, report its kon.
Target: T1, Human CD3eg linker (human)
T1 construct: Single chain: CD3 epsilon and gamma subunits joined by a 29-mer linker, Flag-tag at the C-terminus; also called recombinant human CD3
T1 chain: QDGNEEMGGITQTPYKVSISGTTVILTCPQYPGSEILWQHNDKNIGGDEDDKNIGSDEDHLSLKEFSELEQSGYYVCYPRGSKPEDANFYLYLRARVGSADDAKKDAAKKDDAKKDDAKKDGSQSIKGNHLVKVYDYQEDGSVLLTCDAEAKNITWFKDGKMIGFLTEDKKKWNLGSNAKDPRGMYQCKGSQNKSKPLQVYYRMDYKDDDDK
Assay: SPR Biacore T200, 25 C, Ab captured on anti-human Fc, antigen as analyte;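 also: Anti-Fc amine-coupled to a CM4 chip, recombinant human CD3 flowed over in 20 mM ACES buffer pH 7.4 with 150 mM NaCl and 0.05% Tween 20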
I'd appreciate it if you included the unit after the number.

Briefly, kon measured for H1643L0581 (antibody, V domains shown, Dual-Ig, IgG; also called H1643L581; dBBDu183H1643/dBBDu072L0581) VH: QVQLVESGGGLVQPGRSLRLSCAASGFKFSNVWFHWVRQAPGKGLEWVAQIKDYYNAYAAYYAPSVKGRFTISRDDSKNSIYLQMNSLKTEDTAVYYCHYVHYASASTLLPAEGVDAWGQGTTVTVSS VL: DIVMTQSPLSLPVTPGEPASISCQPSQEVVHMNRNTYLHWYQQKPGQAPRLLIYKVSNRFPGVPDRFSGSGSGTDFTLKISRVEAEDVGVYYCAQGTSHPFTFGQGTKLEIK : 94600 M⁻¹ s⁻¹

Briefly, kon measured for H1649L0581 (antibody, V domains shown, Dual-Ig, IgG; also called dBBDu183H1649/dBBDu072L0581) VH: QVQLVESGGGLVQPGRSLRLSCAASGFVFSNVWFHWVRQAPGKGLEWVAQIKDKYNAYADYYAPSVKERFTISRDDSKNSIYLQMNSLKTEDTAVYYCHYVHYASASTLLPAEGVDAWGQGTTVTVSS VL: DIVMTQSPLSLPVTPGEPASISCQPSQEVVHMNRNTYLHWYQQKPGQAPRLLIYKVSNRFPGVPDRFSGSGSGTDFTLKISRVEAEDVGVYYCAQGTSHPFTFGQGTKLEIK : 75000 M⁻¹ s⁻¹

Briefly, kon measured for H1610L0581 (antibody, V domains shown, Dual-Ig, IgG; also called H1610L581; dBBDu183H1610/dBBDu072L0581) VH: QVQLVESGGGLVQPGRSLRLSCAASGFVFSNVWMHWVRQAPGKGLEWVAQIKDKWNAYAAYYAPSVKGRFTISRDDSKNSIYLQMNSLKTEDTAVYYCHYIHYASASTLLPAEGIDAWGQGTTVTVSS VL: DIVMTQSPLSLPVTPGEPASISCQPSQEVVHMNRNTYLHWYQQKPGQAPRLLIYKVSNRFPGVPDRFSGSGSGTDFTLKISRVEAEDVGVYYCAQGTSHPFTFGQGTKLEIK : 68000 M⁻¹ s⁻¹

The values you see were collected from patent US20210388087A1.
